- Protocol Summary: chemical genetic growth profiling, strain panel (AID 1159580);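 also: tested at 20 µM; growth read once vehicle control cultures reached saturation at 30 °C; lower values mean less growth of the strain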
- Condition Summary: S. cerevisiae deletion strains, growth OD, locus YMR307W, strain GAS1
In all, about 5,500 compounds went through this assay and about 2,000 (36%) were called active. Roughly 18% stayed inconclusive and do not appear here. Rule as the data show it: active = normalized growth mostly below about 0.91 (no sharp cut-off); inconclusive = no clear call, values can overlap the other calls; inactive = mostly above about 0.92. Some of the results follow.
Possible outcomes: active, inactive

[
  {
    "Compound": "CCCSP(=O)(OCC)SCCC",
    "Class Assignment": "inactive"
  },
  {
    "Compound": "COc1ccc2c(c1O)-c1c(OC)c(OC)cc3c1[C@H](C2)N(C)CC3",
    "Class Assignment": "inactive"
  },
  {
    "Compound": "O=C(O)c1cc(O)c(O)c(O)c1",
    "Class Assignment": "inactive"
  },
  {
    "Compound": "O=C1N=C(O)CN1/N=C\\c1ccc(-c2ccc([N+](=O)[O-])cc2)o1",
    "Class Assignment": "inactive"
  },
  {
    "Compound": "c1cc2c(cc1[C@H]1OC[C@H]3[C@@H]1CO[C@H]3c1ccc3c(c1)OCO3)OCO2",
    "Class Assignment": "inactive"
  },
  {
    "Compound": "CCOc1ccc2c(c1)C(C)=CC(C)(C)N2",
    "Class Assignment": "inactive"
  },
  {
    "Compound": "O=C(O)c1cc(=O)c(O)c2c(O)c(O)ccc2c1",
    "Class Assignment": "inactive"
  },
  {
    "Compound": "CN=C1CN(O)C(c2ccccc2)=c2cc(Cl)ccc2=N1",
    "Class Assignment": "inactive"
  },
  {
    "Compound": "COc1cc2c(cc1O)CC1c3c(cc(O)c(OC)c3-2)CCN1C (stereo unspecified)",
    "Class Assignment": "inactive"
  },
  {
    "Compound": "CCOP(=S)(OCC)SCSCC",
    "Class Assignment": "inactive"
  },
  {
    "Compound": "CN(C)CCCO[C@H]1[C@@H](C(O)CO)OC2OC(C)(C)O[C@@H]21 (stereo partly specified)",
    "Class Assignment": "inactive"
  },
  {
    "Compound": "CCCN1CCOC2c3cc(O)ccc3OCC21 (stereo unspecified)",
    "Class Assignment": "inactive"
  },
  {
    "Compound": "S=c1[nH]c2ccccc2[nH]1",
    "Class Assignment": "inactive"
  },
  {
    "Compound": "COc1cc(C(=O)O)cc(OC)c1O",
    "Class Assignment": "inactive"
  },
  {
    "Compound": "CCOP(=S)(OCC)SCCSCC",
    "Class Assignment": "inactive"
  },
  {
    "Compound": "CN1CCc2cccc3c2C1Cc1ccc(O)c(O)c1-3 (stereo unspecified)",
    "Class Assignment": "inactive"
  },
  {
    "Compound": "CN1CCc2cc(O)cc3c2[C@H]1Cc1ccc(O)c(O)c1-3",
    "Class Assignment": "active"
  },
  {
    "Compound": "CCNS(=O)(=O)c1cc(Cl)sc1Cl",
    "Class Assignment": "inactive"
  },
  {
    "Compound": "O=C1CNC(=S)N1CCc1ccccn1",
    "Class Assignment": "inactive"
  },
  {
    "Compound": "CC(=O)O[C@H]1CC[C@@]2(C)C(=CCC3C2CC[C@]2(C)C(=O)CCC32)C1 (stereo partly specified)",
    "Class Assignment": "inactive"
  },
  {
    "Compound": "CC(=O)OCC(=O)[C@@]12OC(C)(C)O[C@@H]1CC1C3C[C@H](F)C4=CC(=O)C=C[C@]4(C)[C@@]3(F)[C@@H](O)C[C@@]12C (stereo partly specified)",
    "Class Assignment": "inactive"
  }
]
